Details: in n-butanol, 308.15 K

{"Compound": "CC(C)(C)[C@H](O)[C@H](Cc1ccc(Cl)cc1)n1cncn1 (racemic)", "solubility (mole fraction)": 0.0279}

###

Conditions: in 1,4-dioxane, 288.15 K

{"Compound": "CC(C)(C)[C@H](O)[C@H](Cc1ccc(Cl)cc1)n1cncn1 (racemic)", "solubility (mole fraction)": 0.0223}

###

Settings: in 1,4-dioxane, 318.15 K

{"Compound": "CC(C)(C)[C@H](O)[C@H](Cc1ccc(Cl)cc1)n1cncn1 (racemic)", "solubility (mole fraction)": 0.0593}

###

Conditions: in acetone, 313.15 K

{"Molecule": "CC(C)(C)[C@H](O)[C@H](Cc1ccc(Cl)cc1)n1cncn1 (racemic)", "solubility (mole fraction)": 0.0335}

###

Details: in ethanol, 290.65 K

{"Molecule": "CC(C)(C)[C@H](O)[C@H](Cc1ccc(Cl)cc1)n1cncn1 (racemic)", "solubility (mole fraction)": 0.0117}

###

Conditions: in ethanol, 295.65 K
Measure Name: solubility (mole fraction)

{"Molecule": "CC(C)(C)[C@H](O)[C@H](Cc1ccc(Cl)cc1)n1cncn1 (racemic)", "Measure Name": "solubility (mole fraction)", "Result Value": 0.0138}

###

Conditions: in acetonitrile, 300.65 K

{"Compound": "CC(C)(C)[C@H](O)[C@H](Cc1ccc(Cl)cc1)n1cncn1 (racemic)", "solubility (mole fraction)": 0.00596}

###

Details: in toluene, 300.65 K
Measure Name: solubility (mole fraction)

{"Compound": "CC(C)(C)[C@H](O)[C@H](Cc1ccc(Cl)cc1)n1cncn1 (racemic)", "Measure Name": "solubility (mole fraction)", "Result Value": 0.0521}

###

Details: in isopropanol, 305.65 K
Measure Name: solubility (mole fraction)

{"Compound": "CC(C)(C)[C@H](O)[C@H](Cc1ccc(Cl)cc1)n1cncn1 (racemic)", "Result Value": 0.0173}

###

Conditions: in isopropanol, 318.15 K

{"Compound": "CC(C)(C)[C@H](O)[C@H](Cc1ccc(Cl)cc1)n1cncn1 (racemic)", "solubility (mole fraction)": 0.0242}

###

Details: in toluene, 285.65 K

{"Compound": "CC(C)(C)[C@H](O)[C@H](Cc1ccc(Cl)cc1)n1cncn1 (racemic)", "solubility (mole fraction)": 0.045}

###

Conditions: in n-propanol, 300.65 K
Measure Name: solubility (mole fraction)

{"Molecule": "CC(C)(C)[C@H](O)[C@H](Cc1ccc(Cl)cc1)n1cncn1 (racemic)", "Result Value": 0.0203}

###

Conditions: in n-propanol, 280.65 K

{"Molecule": "CC(C)(C)[C@H](O)[C@H](Cc1ccc(Cl)cc1)n1cncn1 (racemic)", "solubility (mole fraction)": 0.0131}

###

Settings: in acetonitrile, 295.65 K
Measure Name: solubility (mole fraction)

{"Molecule": "CC(C)(C)[C@H](O)[C@H](Cc1ccc(Cl)cc1)n1cncn1 (racemic)", "Result Value": 0.00495}

###

Conditions: in toluene, 293.15 K
Measure Name: solubility (mole fraction)

{"Compound": "CC(C)(C)[C@H](O)[C@H](Cc1ccc(Cl)cc1)n1cncn1 (racemic)", "Result Value": 0.0484}

###

Settings: in ethyl acetate, 305.65 K
Measure Name: solubility (mole fraction)

{"Compound": "CC(C)(C)[C@H](O)[C@H](Cc1ccc(Cl)cc1)n1cncn1 (racemic)", "Result Value": 0.0324}
